Assayed target: Respiratory Syncytial Virus fusion glycoprotein (RSV F) on RSV-A2 virus (Respiratory Syncytial Virus subtype A (RSV-A2))
Assay name: cell-based or functional assay
Quantity kind: Neutralization IC50 (RSV subtype A) (µg/mL)

>>> recorded_value("ADI-41193 (antibody, V domains shown) VH: EVQLVESGGGLVKPGMSLRLSCAASGFRFSDHYMNWIRQAPGKGLEWVSYISSSSTYTDYTDSVKGRFTISRDNSKNSVYLQMNSLRAEDTAIYYCARVAPIRHNGDYIDYWGQGTTVTVSS VL: NFMLTQPPSASGTPGQRVTISCTGSSSNIGAGYDVHZYQQIPGTAPKLLIYGNNNRPSGVPDRFSGSKSGTSASLAITGLQTEDEADYYCQSYDRGLSGRVFGTGTKVTVL")
0.07

These entries and their values trace back to patent US20260258115A1.
